biological target: mTOR/GbL/Raptor (mTORC1) (Homo sapiens, UniProt P42345); assay: mTOR/GbL/Raptor (mTORC1) ELISA assay; settings: phosphorylation of 4E-BP1; 0.2 nM mTORC1, 10 μM ATP; read-out: IC50 in this assay (mTORC1 ELISA)
READOUT TYPE: IC50

Give IC50 for the following compound: CC(=O)OCc1nc2c(c(N3CCOc4ccc(-c5cnc6nc(C)[nH]c6c5)cc4C3)n1)CC(C)(C)CC2 [Example 313]
≤ 10 nM

Give me measured IC50, please, for this compound: COc1ccc2c(N3CCOc4ccc(-c5ccc(-c6nc7ccccc7[nH]6)cc5)cc4C3)nc(C)nc2c1 [Example 240]
≥ 2000 nM

Identify the reported IC50 for the following entry. Cc1nc2c(c(N3CCOc4ccc(-c5cnc6nc(C)[nH]c6c5)cc4C3)n1)CC(C)(C)CC2 [Example 550]
≤ 10 nM

Determine from records and report IC50 for CC1(C)CCc2ncnc(N3CCOc4ccc(-c5cnc(N)c(S(=O)(=O)N[C@H]6CC[C@H](N)CC6)c5)cc4C3)c2C1 [Example 416]
50 to 250 nM

In one line, give reported IC50 of the entry Cc1ncnc(N2CCOc3ccc(-c4ccc(C(=O)NC5CC5)cc4)cc3C2)c1Cc1ccc(F)cc1 [Example 172] .
50 to 250 nM

Dear colleague, please send me the reported IC50 for CC1(C)CCc2nc(CC#N)nc(N3CCOc4ccc(-c5cnc6sc(N)nc6c5)cc4C3)c2C1 [Example 684] when you can.
≤ 10 nM

Tell me its IC50 given Cc1nc2ccc(-c3ccc4c(c3)CN(c3ncnc5c3CN(C3CC3)C5)CCO4)cc2[nH]1 [Example 87] as the entry.
250 to 1000 nM

Please report IC50 for the following compound: Cc1nc(CN(C)C)nc(N2CCOc3ccc(-c4ccc5[nH]c(CF)nc5c4)cc3C2)c1Cc1ccc(F)cc1 [Example 321]
≤ 10 nM

Please look at this compound and report its IC50: Cc1nc2ccc(-c3ccc4c(c3)CN(c3ncncc3C)CCO4)cc2[nH]1 [Example 44]
1000 to 2000 nM

Read the entry COc1ccc(-c2ccc3c(c2)CN(c2nc(CN(C)C)nc4c2CC(C)(C)CC4)CCO3)cc1 [Example 329] and write its reported IC50.
≥ 2000 nM

Identify measured IC50 associated with CC1(C)CCc2ncnc(N3CCOc4ccc(-c5cnc(N)c(S(=O)(=O)N6CCC(O)C6)c5)cc4C3)c2C1 (stereo not drawn) [Example 318]
10 to 50 nM

Fill in reported IC50 for this entry: Cc1ncnc(N2CCOc3ccc(-c4ccc(C(N)=O)cc4)cc3C2)c1Cc1ccc(F)cc1 [Example 170]
≤ 10 nM

Supply measured IC50 of Cc1ncc(-c2ccc3c(c2)CN(c2ncnc4c2CC(C)(C)CC4)CCO3)cc1NS(C)(=O)=O [Example 633] in your reply.
50 to 250 nM

Return IC50 for the following compound: CN(CCO)S(=O)(=O)c1cc(-c2ccc3c(c2)CN(c2ncnc4c2CC(C)(C)CC4)CCO3)cnc1N [Example 370]
10 to 50 nM

Recall and state the measured IC50 for CCc1c(C)nc(CN(C)C)nc1N1CCOc2ccc(-c3cnc4[nH]c(C)nc4c3)cc2C1 [Example 350] .
50 to 250 nM

Read the entry COC1Cc2nc(CN(C)C)nc(N3CCOc4ccc(-c5ccc6scnc6c5)cc4C3)c2CC1(C)C (stereo not drawn) [Example 338] and write its reported IC50.
≥ 2000 nM

Output measured IC50 for this item: CC1(C)CCc2ncnc(N3CCOc4ccc(-c5cnc(C(N)=O)c(N)c5)cc4C3)c2C1 [Example 457]
50 to 250 nM

Note down IC50 recorded for COC(=O)Nc1nc2ncc(-c3ccc4c(c3)CN(c3ncnc5c3CC(C)(C)CC5)CCO4)cc2[nH]1 [Example 582]
≤ 10 nM

For COc1ccc2c(N3CCOc4ccc(-c5ccc6c(c5)CC(=O)N6)cc4C3)nc(C)nc2c1 [Example 524] , write its IC50.
1000 to 2000 nM

Fill in IC50 for record CC1(C)CCc2ncnc(N3CCOc4ccc(-c5cnc(N)c(S(=O)(=O)NC[C@@H]6CCCNC6)c5)cc4C3)c2C1 [Example 386]
250 to 1000 nM

Provide only the value of recorded IC50 for Cc1ncc(-c2ccc3c(c2)CN(c2ncnc4c2CCC(C)(C)C4)CCO3)s1 [Example 152]
250 to 1000 nM

Give IC50 for COc1ccc2c(N3CCOc4ccc(-c5ccc6nc(N)[nH]c6c5)cc4C3)nc(C)nc2c1 [Example 539]
50 to 250 nM

Output measured IC50 for this item: COc1ccc2c(N3CCOc4ccc(-c5cnc(N)c(S(=O)(=O)N6CC[C@H](N)C6)c5)cc4C3)ncnc2c1 [Example 454]
250 to 1000 nM

Assign IC50 to the following record: COc1cc2c(N3CCOc4ccc(-c5ccc6nc(C)[nH]c6c5)cc4C3)ncnc2c(OC)c1OC [Example 57]
≥ 2000 nM

Annotate the compound CC(C)(N)CNS(=O)(=O)c1cc(-c2ccc3c(c2)CN(c2ncnc4c2CC(C)(C)CC4)CCO3)cnc1N [Example 406] with its measured IC50.
≤ 10 nM

For the compound Cc1nc2ccc(-c3ccc4c(c3)CN(c3ccnc5ccccc35)CCO4)cc2[nH]1 [Example 98] , give its measured IC50 value.
50 to 250 nM

Item Cc1nc(CN(C)C)nc(N2CCOc3ccc(-c4ccc5scnc5c4)cc3C2)c1Cc1ccc(F)cc1 [Example 336] : provide IC50
50 to 250 nM

Give the measured IC50 for CN(C)Cc1nc2c(c(N3CCOc4ccc(-c5cnc6nc(C7CC7)[nH]c6c5)cc4C3)n1)CC(C)(C)CC2 [Example 339]
≤ 10 nM

Recall and state the measured IC50 for Cc1c(NCC2CCN(C)CC2)ncnc1N1CCOc2ccc(-c3cnc4nc(C5CC5)[nH]c4c3)cc2C1 [Example 533] .
≥ 2000 nM

Report IC50 for Cc1nc2ccc(-c3ccc4c(c3)CN(c3ncnc5cc(S(C)(=O)=O)ccc35)CCO4)cc2[nH]1 [Example 40]
50 to 250 nM

---

target: mTOR/GbL/Raptor (mTORC1) (Homo sapiens); assay: mTOR/GbL/Raptor (mTORC1) ELISA assay; details: phosphorylation of 4E-BP1; 0.2 nM mTORC1, 10 μM ATP; read-out: IC50 in this assay (mTORC1 ELISA)
pIC50: −log10 of the molar value.
Would you kindly list pIC50 for each of these compounds?

Look up and state reported pIC50 for c1ccc2c(N3CCOc4ccc(-c5ccc6cn[nH]c6c5)cc4C3)ccnc2c1 [Example 136]
5.70 to 6.00

Read the entry Cc1nccc(N2CCOc3ccc(-c4cnc5nc(C)[nH]c5c4)cc3C2)n1 [Example 85] and write its reported pIC50.
6.60 to 7.30

Consider the compound Cc1nc(CN(C)C)nc(N2CCOc3ccc(-c4ccc5[nH]c(CF)nc5c4)cc3C2)c1C(C)C [Example 332] . State its measured pIC50.
6.60 to 7.30

Please indicate pIC50 recorded for CCNc1nc2ccc(-c3ccc4c(c3)CN(c3ccnc5ccc(OC)cc35)CCO4)cc2[nH]1 [Example 278]
6.60 to 7.30

Identify the reported pIC50 for the following entry. Cc1nc2ncc(-c3ccc4c(c3)CN(c3ncnc(N5CCOCC5)c3C)CCO4)cc2[nH]1 [Example 551]
6.00 to 6.60

State, in one line, measured pIC50 of CCc1nc2ccc(-c3ccc4c(c3)CN(c3ncnc5c3CC(C)(C)CC5)CCO4)cc2[nH]1 [Example 254]
≥ 8.00

Check the records and state pIC50 for CCNC(=O)c1cccc(-c2ccc3c(c2)CN(c2nc(C)nc4cc(OC)ccc24)CCO3)c1 [Example 638]
≤ 5.70

Give the reported value of pIC50 for this record: CC1(C)CCc2ncnc(N3CCOc4ccc(-c5cnc(N)c(S(=O)(=O)N6CCC(O)CC6)c5)cc4C3)c2C1 [Example 317]
6.60 to 7.30

---

target: mTOR/GbL/Raptor (mTORC1) (Homo sapiens); test: mTOR/GbL/Raptor (mTORC1) ELISA assay; details: phosphorylation of 4E-BP1; 0.2 nM mTORC1, 10 μM ATP; read-out: IC50 in this assay (mTORC1 ELISA)
READOUT TYPE: IC50

Report IC50 for CCCc1c(C)nc(CN(C)C)nc1N1CCOc2ccc(-c3ccc4nc(C)[nH]c4c3)cc2C1
250 to 1000 nM

Using the record for COC(=O)Nc1nc2ccc(-c3ccc4c(c3)CN(c3ncnc5[nH]ccc35)CCO4)cc2[nH]1 , state its measured IC50.
≥ 2000 nM

Respond only with IC50 recorded for CCCNC(=O)c1ccc(-c2ccc3c(c2)CN(c2ccnc4ccccc24)CCO3)cc1
50 to 250 nM

Specify reported IC50 for the compound shown: Cc1nc2ccc(-c3ccc4c(c3)CN(c3nc(CN5CC[C@@H](F)C5)nc5c3CC(C)(C)CC5)CCO4)cc2[nH]1
50 to 250 nM

Answer with the recorded IC50 for the compound listed here: CCOC(=O)Nc1nc2ncc(-c3ccc4c(c3)CN(c3ncnc5c3CC(C)(C)CC5)CCO4)cc2[nH]1
10 to 50 nM

Quote IC50 reported for CC1(C)CCc2ncnc(N3CCOc4ccc(-c5cnc6sc(N)nc6c5)cc4C3)c2C1 please.
≤ 10 nM

Specify measured IC50 for Cc1nc2ncc(-c3ccc4c(c3)CN(c3nc(CN5CC[C@@H](F)C5)nc5c3CC(C)(C)CC5)CCO4)cc2[nH]1 .
10 to 50 nM

Give me measured IC50, please, for this compound: COc1ccc2c(N3CCOc4ccc(-c5cnc(N)nc5)cc4C3)nc(C)nc2c1
≥ 2000 nM
